- Tested on: KPN UFR42
- Assay Summary: MIC, broth microdilution (CLSI), substance alone or ATB combined with compound at 4 or 8 μg/mL
- Format: cell-based, K. pneumoniae
- Measurement Parameters: KPN UFR42; with Example 9 at 4 μg/ml
Experimental Readout: MIC ATB combined with Example 9 @4 μg/ml (µg/mL)
Give the number; µg/mL is assumed, so skip it.

Looking up C[C@@H](O)[C@H]1C(=O)N2C(C(=O)O)=C(SCCN=CN)C[C@H]12 , I see its MIC ATB combined with Example 9 @4 μg/ml listed as 32

Let us move to another entry and its MIC ATB combined with Example 9 @4 μg/ml.
The compound identified as CN(C)c1cc(NC(=O)CNC(C)(C)C)c(O)c2c1C[C@H]1C[C@H]3[C@H](N(C)C)C(O)=C(C(N)=O)C(=O)[C@@]3(O)C(O)=C1C2=O registered its MIC ATB combined with Example 9 @4 μg/ml at 0.25

---

Listed here are molecules together with their documented MIC ATB combined with Example 9 @4 μg/ml.
- Test system: ECL P99
- Assay Summary: MIC, broth microdilution (CLSI), substance alone or ATB combined with compound at 4 or 8 μg/mL
- Format: cell-based, E. cloacae
- Measurement Parameters: ECL P99; with Example 9 @4 μg/ml
- Description: Compounds of the present invention were assessed against genotyped bacterial strains alone or in combination with an antibacterial. In the assays, MICs of said compounds or combination of antibiotics with fixed concentrations of said compounds (4 or 8 μg/mL) were determined by the broth microdilution method according to the Clinical Laboratory Standards Institute (CLSI-M7-A7). […]

Previously resolved entries follow.
Record CO/N=C(\C(=O)N[C@@H]1C(=O)N2C(C(=O)[O-])=C(C[n+]3cccc4c3CCC4)CS[C@H]12)c1csc(N)n1 [CPO] / ECL P99, MIC ATB combined with Example 9 @4 μg/ml recorded as <0.031 µg/mL

Form field MIC ATB combined with Example 9 @4 μg/ml for item C[C@@H](O)[C@H]1C(=O)N2C(C(=O)O)=C(SCCN=CN)C[C@H]12 [IMI] on ECL P99: <0.031 µg/mL

Record C=CC1=C(C(=O)O)N2C(=O)[C@@H](NC(=O)/C(=N\OCC(=O)O)c3csc(N)n3)[C@H]2SC1 [FIX, Cefixime, reference compound] has ECL P99 MIC ATB combined with Example 9 @4 μg/ml equal to <0.031 µg/mL

Fill in: ECL P99 MIC ATB combined with Example 9 @4 μg/ml for CC1(C)S[C@@H]2[C@H](NC(=O)[C@H](N)c3ccc(O)cc3)C(=O)N2[C@H]1C(=O)O [AMX, Amoxicillin, reference compound] = <0.031 µg/mL

---
Noted MIC ATB combined with Example 9 @4 μg/ml for CO/N=C(\C(=O)N[C@@H]1C(=O)N2C(C(=O)O)=C(COC(N)=O)CS[C@H]12)c1ccco1 [FUR, Cefuroxime, reference compound] , tested on ECL P99: <0.031 µg/mL

MIC ATB combined with Example 9 @4 μg/ml for ECL P99 with input CN(C)c1cc(NC(=O)CNC(C)(C)C)c(O)c2c1C[C@H]1C[C@H]3[C@H](N(C)C)C(O)=C(C(N)=O)C(=O)[C@@]3(O)C(O)=C1C2=O [TGC] equals <0.031 µg/mL

Note to self: MIC ATB combined with Example 9 @4 μg/ml of NCC[C@H](O)C(=O)N[C@@H]1C[C@H](N)[C@@H](O[C@H]2O[C@H](CN)[C@@H](O)[C@H](O)[C@H]2O)[C@H](O)[C@H]1O[C@H]1O[C@H](CO)[C@@H](O)[C@H](N)[C@H]1O [AN, Amikacin, reference compound] with ECL P99 was <0.031 µg/mL
